- METHOD SUMMARY: Acute toxicity
- RUN PARAMETERS: in vivo, iv; administered intravenously, mouse
ATTRIBUTE MEASURED: LD50

For reference, reported LD50 for CCN(CC)CC(O)CNC(=O)c1c(OC)c2ccccc2n1-c1ccccc1 (stereo not shown) stands at 37.3 µmol/kg

* * *

Kindly state Minimum toxic dose for each of the entries shown.
- Test system: mice
- RUN PARAMETERS: mouse, in vivo, po

As a guide, the following entries are already answered.
# COMPOUND, SYSTEM, OBSERVED
records = [
    ("CCN(CC)CCCCNC(=O)c1c(OC)c2ccccc2n1-c1ccccc1 [Example 22]", "mice", "50 mg/kg"),
    ("COc1c(C(=O)NCCN(C)C)n(-c2ccc(Cl)cc2)c2ccccc12 [Example 15]", "mice", "≥ 300 mg/kg"),
    ("COc1c(C(=O)NCCN(C)C)n(-c2ccccc2)c2ccc(Br)cc12 [Example 30]", "mice", "200 mg/kg"),
    ("Cc1cccc(-n2c(C(=O)NCCN(C)C)c(O)c3ccccc32)c1C [Example 25]", "mice", "≥ 300 mg/kg"),
    ("CCN(CC)CC(O)CNC(=O)c1c(OC)c2ccccc2n1-c1ccccc1 (stereo not shown) [Example 1]", "mice", "100 mg/kg"),
    ("CCN(CC)CCCNC(=O)c1c(OC)c2ccccc2n1-c1ccccc1 [Example 20]", "mice", "50 mg/kg"),
]

// next entry
Reading of Minimum toxic dose for CN(C)CCNC(=O)c1c(O)c2ccccc2n1-c1ccc(Cl)cc1 [Example 2] with mice: ≥ 300 mg/kg

* * *

- METHOD SUMMARY: Acute toxicity
- RUN PARAMETERS: in vivo, ip; administered intraperitoneally, mouse
ATTRIBUTE MEASURED: LD50
Numeric answer plus unit only.

For reference, reported LD50 for CCN(CC)CC(O)CNC(=O)c1c(OC)c2ccccc2n1-c1ccccc1 (stereo not shown) [Example 1] stands at 164 µmol/kg

* * *

- METHOD SUMMARY: Acute toxicity
- RUN PARAMETERS: in vivo; LD50 mouse over minimum effective dose in aconitine test; read-out: therapeutic range (=quotient LD50 mouse/EDmin)
ATTRIBUTE MEASURED: selectivity ratio

For reference, reported selectivity ratio for CCN(CC)CC(O)CNC(=O)c1c(OC)c2ccccc2n1-c1ccccc1 (stereo not shown) [Example 1] stands at 8 to 17

* * *

Kindly state Minimum toxic dose for each of the entries shown.
- Tested on: mice
- RUN PARAMETERS: mouse, in vivo, ip

# COMPOUND, Minimum toxic dose
data = [
    ("Cc1cccc(-n2c(C(=O)NCCN(C)C)c(O)c3ccccc32)c1C", "≥ 100 mg/kg"),
    ("COc1c(C(=O)NCCN(C)C)n(-c2ccc(Cl)cc2)c2ccccc12", "≥ 100 mg/kg"),
    ("CCN(CC)CCCCNC(=O)c1c(OC)c2ccccc2n1-c1ccccc1", "300 mg/kg"),
    ("CCN(CC)CCCNC(=O)c1c(OC)c2ccccc2n1-c1ccccc1", "300 mg/kg"),
    ("COc1c(C(=O)NCCN(C)C)n(-c2ccccc2)c2ccc(Br)cc12", "≥ 300 mg/kg"),
    ("CCN(CC)CC(O)CNC(=O)c1c(OC)c2ccccc2n1-c1ccccc1 (stereo not shown)", "300 mg/kg"),
]

// next entry
For reference, reported Minimum toxic dose for CN(C)CCNC(=O)c1c(O)c2ccccc2n1-c1ccc(Cl)cc1 stands at ≥ 100 mg/kg
